Source listed as paper PMC11544713.

- Test Name: Acute intervention: nutrikinetics of plasma metabolites after ingestion of O. europaea extract (untargeted HPLC-ESI-QTOF-MS)
- Condition Info: in vivo
Counter-ions that a name gives are not always drawn.
API: label(entry) gives fulfilled if the entry's mean chromatographic area in plasma, T6 is strictly smaller than 10; on equality or larger values it gives not fulfilled.

// known answers, use as guide
O=C(O)CCCCCCCCC(=O)O [debacic acid isomer 3, sebacic acid]    not fulfilled
O=c1cc(-c2ccc(O)cc2)oc2c([C@@H]3O[C@H](CO)[C@@H](O)[C@H](O)[C@H]3O)c(O)c([C@@H]3O[C@H](CO)[C@@H](O)[C@H](O)[C@H]3O)c(O)c12    fulfilled
COc1cc(CC(=O)O)ccc1OS(=O)(=O)O [homovanillic acid sulfate isomer 1, homovanillic acid sulfate]    not fulfilled
COc1cc(CCC(=O)O)ccc1O[C@@H]1O[C@H](C(=O)O)[C@@H](O)[C@H](O)[C@H]1O [dihydroferulic acid 4-O-glucuronide]    not fulfilled

Req: Is 10 strictly greater than the compound's reported mean chromatographic area in plasma, T6? compound: C=Cc1ccc(O)c(OC)c1
Resp: fulfilled

Req: Is 10 strictly greater than the compound's reported mean chromatographic area in plasma, T6? compound: COc1cc(C=O)ccc1O[C@@H]1O[C@H](C(=O)O)[C@@H](O)[C@H](O)[C@H]1O [vanillin glucuronide]
Resp: not fulfilled
